Tested on: biotinyl-Met-oxazolone
protocol notes: self-aminoacylation, catalytic enhancement (BMO) (fold over background); higher = more active; k-Seq, kA / k0A0; sequences stand for … in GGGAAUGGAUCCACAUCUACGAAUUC…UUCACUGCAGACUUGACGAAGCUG
Variants at the floor of the assay were thinned out.
recorded endpoint: self-aminoacylation
Would you mind answering with just the numeric figure?

Challenge: I have this sequence here, AUUCACCUAGGUCAUGGAGUG [Fam2.2 aminoacylation ribozyme variant] , and I need its recorded self-aminoacylation.
Response given: 3.29

Challenge: I have this sequence here, CCAAAGUUCAAGCAAUCGGUC [Fam1B.1 aminoacylation ribozyme variant] , and I need its recorded self-aminoacylation.
Response given: 1.32

Challenge: I have this sequence here, AAUCACCUAGCUCAUCGGGUG [Fam2.2 aminoacylation ribozyme variant] , and I need its recorded self-aminoacylation.
Response given: 2.82

Challenge: I have this sequence here, AUUCAACUAGGUCACCGGGUG [Fam2.2 aminoacylation ribozyme variant] , and I need its recorded self-aminoacylation.
Response given: 5.89

Challenge: I have this sequence here, AUUCACCAAGGUCAUCGGAUG [Fam2.2 aminoacylation ribozyme variant] , and I need its recorded self-aminoacylation.
Response given: 0.703

Challenge: I have this sequence here, GUACUCCAAACAAUCGGUCUG [Fam1A.1 aminoacylation ribozyme variant] , and I need its recorded self-aminoacylation.
Response given: 0.967

---

I'd be grateful if you could share measured self-aminoacylation for these entries.
System: biotinyl-Phe-oxazolone
protocol notes: self-aminoacylation, catalytic enhancement (BFO) (fold over background); higher = more active; k-Seq, kA / k0A0; sequences stand for … in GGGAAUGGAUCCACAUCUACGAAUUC…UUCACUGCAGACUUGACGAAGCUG
Fewer inactive variants are shown than the library holds.
Would you mind answering with just the numeric figure?

Challenge: I have this sequence here, ACUCACCUAGGUCAUCCGGUG [Fam2.2 aminoacylation ribozyme variant] , and I need its recorded self-aminoacylation.
Response given: 39.5

Challenge: I have this sequence here, AUUACCCUGUUCAUAGAGUGA [Fam2.1 aminoacylation ribozyme variant] , and I need its recorded self-aminoacylation.
Response given: 110

Challenge: I have this sequence here, CCGCACUUCGAGCAAUCGGUC [Fam1B.1 aminoacylation ribozyme variant] , and I need its recorded self-aminoacylation.
Response given: 5.29

Challenge: I have this sequence here, UUUACCCUGUUCAUCGAGUGA [Fam2.1 aminoacylation ribozyme variant] , and I need its recorded self-aminoacylation.
Response given: 5.37

Challenge: I have this sequence here, AUUCACCUAGGUCCUCGGAUG [Fam2.2 aminoacylation ribozyme variant] , and I need its recorded self-aminoacylation.
Response given: 0.427

Challenge: I have this sequence here, CUACGUCAACCAAUCGGUCUG [Fam1A.1 aminoacylation ribozyme variant] , and I need its recorded self-aminoacylation.
Response given: 3.4

Challenge: I have this sequence here, AUUCACAUUGGUCAUCGGGUG [Fam2.2 aminoacylation ribozyme variant] , and I need its recorded self-aminoacylation.
Response given: 82.8

Challenge: I have this sequence here, AAGCUGGCUAAUAGUCGCAAG [Fam3.1 aminoacylation ribozyme variant] , and I need its recorded self-aminoacylation.
Response given: 3.61

Challenge: I have this sequence here, AUUCACCUAGGGCAUCGGGGG [Fam2.2 aminoacylation ribozyme variant] , and I need its recorded self-aminoacylation.
Response given: 7.22

Challenge: I have this sequence here, AAGUCUGCUAAAAGUCGCAAG [Fam3.1 aminoacylation ribozyme variant] , and I need its recorded self-aminoacylation.
Response given: 23.1

Challenge: I have this sequence here, AAGUCUGCUAGUAGUCGCAAG [Fam3.1 aminoacylation ribozyme variant] , and I need its recorded self-aminoacylation.
Response given: 1.06

Challenge: I have this sequence here, ACACACUUCAACCAAUCGGUC [Fam1B.1 aminoacylation ribozyme variant] , and I need its recorded self-aminoacylation.
Response given: 32.5

Challenge: I have this sequence here, CCACACUUCAAGCAGUCGGUC [Fam1B.1 aminoacylation ribozyme variant] , and I need its recorded self-aminoacylation.
Response given: 1.1

Challenge: I have this sequence here, CCACACUUCAAGCAAACGAUC [Fam1B.1 aminoacylation ribozyme variant] , and I need its recorded self-aminoacylation.
Response given: 0.772

Challenge: I have this sequence here, CCACUCUUCAAGCAAUAGGUC [Fam1B.1 aminoacylation ribozyme variant] , and I need its recorded self-aminoacylation.
Response given: 0.921

Challenge: I have this sequence here, AUUCACCUAGGUAAUCGGGUC [Fam2.2 aminoacylation ribozyme variant] , and I need its recorded self-aminoacylation.
Response given: 0.508

Challenge: I have this sequence here, CUAAUUCAAACAAUCGGUCUA [Fam1A.1 aminoacylation ribozyme variant] , and I need its recorded self-aminoacylation.
Response given: 1.65

Challenge: I have this sequence here, UAGUUUGCUAAUAGUCUCAAG [Fam3.1 aminoacylation ribozyme variant] , and I need its recorded self-aminoacylation.
Response given: 3.9

Challenge: I have this sequence here, AGGUUUGCUAAUAGUCGUAAG [Fam3.1 aminoacylation ribozyme variant] , and I need its recorded self-aminoacylation.
Response given: 29.2

Challenge: I have this sequence here, AUUCACCUAGGUUAGCGGGUG [Fam2.2 aminoacylation ribozyme variant] , and I need its recorded self-aminoacylation.
Response given: 19.7

Challenge: I have this sequence here, AUUACCCUGGUCGUCGGGUGA [Fam2.1 aminoacylation ribozyme variant] , and I need its recorded self-aminoacylation.
Response given: 26.3

Challenge: I have this sequence here, CUAUUUCAAACAAUCGGUCGG [Fam1A.1 aminoacylation ribozyme variant] , and I need its recorded self-aminoacylation.
Response given: 2.12

Challenge: I have this sequence here, AUUACCCUGACCAUCGAGUGA [Fam2.1 aminoacylation ribozyme variant] , and I need its recorded self-aminoacylation.
Response given: 8.94

Challenge: I have this sequence here, CCACACUUCAAUCAAUCUGUC [Fam1B.1 aminoacylation ribozyme variant] , and I need its recorded self-aminoacylation.
Response given: 0.748

Challenge: I have this sequence here, AAGUUUGCUACUAGUCGCAAG [Fam3.1 aminoacylation ribozyme variant] , and I need its recorded self-aminoacylation.
Response given: 1.13

Challenge: I have this sequence here, AUUCACCUAGCUCACCGGGUG [Fam2.2 aminoacylation ribozyme variant] , and I need its recorded self-aminoacylation.
Response given: 16.7

Challenge: I have this sequence here, AUUACCAUGGUCAUCGAGUGC [Fam2.1 aminoacylation ribozyme variant] , and I need its recorded self-aminoacylation.
Response given: 0.948

Challenge: I have this sequence here, CUACUUCAUACAAUCGGUGUG [Fam1A.1 aminoacylation ribozyme variant] , and I need its recorded self-aminoacylation.
Response given: 0.976

Challenge: I have this sequence here, AUUCACCUGGGACAUCGGGUG [Fam2.2 aminoacylation ribozyme variant] , and I need its recorded self-aminoacylation.
Response given: 55.4

Challenge: I have this sequence here, AAGUUUCCUAAUAGUCGAAAG [Fam3.1 aminoacylation ribozyme variant] , and I need its recorded self-aminoacylation.
Response given: 2.75

Challenge: I have this sequence here, AUUACGCUAGUCAUCGAGUGA [Fam2.1 aminoacylation ribozyme variant] , and I need its recorded self-aminoacylation.
Response given: 2.19
